Sourced from PubChem BioAssay (NCI)

# Tested on: DU-145 prostate
# Assay: NCI-60 one-dose screen, 48 h
# Assay setup: 10 µM unless noted
About 83,000 compounds went through this panel and 20% of them were active in at least one assay; those are over-represented in the sample as a whole. Calls of active or inactive are those of the source. The calls were made as follows: active = growth percent below 10; inactive = the rest.
Select the correct class. Options are Y for active, N for inactive and nothing else.

Problem: Would you mind telling me which call this test gave Clc1ncnc2scc(C3COc4ccccc4O3)c12 (configuration not stated) ?
Result: N

Problem: Would you mind telling me which call this test gave NC(=O)c1noc(C(=O)c2ccccc2)c1N ?
Result: N

Problem: Would you mind telling me which call this test gave Cn1nc(C(F)(F)F)cc1-c1cc(Cl)c(OCc2ccc(Cl)cc2)c(-c2ccc(Cl)c(C(F)(F)F)c2)c1O ?
Result: N

Problem: Would you mind telling me which call this test gave Brc1ccccc1Cn1c(-c2cncs2)nc2ccccc21 ?
Result: N

Problem: Would you mind telling me which call this test gave Cc1ccc(N2C3c4ccccc4N(S(=O)(=O)c4ccc(C)cc4)C2c2ccccc2N3S(=O)(=O)c2ccc(C)cc2)cc1 ?
Result: N

Problem: Would you mind telling me which call this test gave Brc1cccc(-n2ncc3c(Nc4ccc(-c5nnc(-c6ccccc6)o5)cc4)ncnc32)c1 ?
Result: N

Problem: Would you mind telling me which call this test gave Cc1cc(O)c(C2=NN(c3ccc(S(N)(=O)=O)cc3)C(c3ccc(Cl)cc3)C2)c(C)c1Cl (configuration not stated) ?
Result: N

Problem: Would you mind telling me which call this test gave Cc1ccc(NC(=O)c2[nH]c(SCCN(C)C)nc2-c2ccc(F)cc2)cc1Nc1ccc2ncn(C)c(=O)c2c1 ?
Result: N

Problem: Would you mind telling me which call this test gave O=S(=O)(NCC[C@@H]1C[C@H]1c1ccc2ccccc2c1)c1ccc(C(F)(F)F)cc1 ?
Result: N

Problem: Would you mind telling me which call this test gave Cn1nc(C(F)(F)F)cc1-c1c[nH]c(OCc2ccc(Cl)cc2)c(-c2ccc(Cl)c(C(F)(F)F)c2)c1=O ?
Result: N

Problem: Would you mind telling me which call this test gave Cn1c(=O)c2c3c(oc2c2ccccc21)C(=O)c1ccccc1C3=O ?
Result: N

Problem: Would you mind telling me which call this test gave COc1ccc2cc(-c3nc(C)c(C(C)=O)c(-c4ccc(C)cc4)n3)ccc2c1 ?
Result: N

Problem: Would you mind telling me which call this test gave CC(CN1CCN(C)CC1)CN1c2ccccc2Sc2ccc(C(F)(F)F)cc21 (configuration not stated) ?
Result: N

Problem: Would you mind telling me which call this test gave O=c1[nH]c2ccccc2n2cc3cccnc3c12 ?
Result: N

Problem: Would you mind telling me which call this test gave COc1ccc(/C(=C\c2ccc3c(c2)OCO3)C(=O)Nc2nc3ccccc3s2)cc1 ?
Result: N

Problem: Would you mind telling me which call this test gave COc1c(B(O)O)cccc1-c1nc2c(F)cc3n[nH]c(C)c3c2c2c1CCCC2 ?
Result: N

Problem: Would you mind telling me which call this test gave Cc1nc([C@H]2CC[C@H]3[C@@H]4CCC5=CC(=O)CC[C@]5(C)[C@H]4CC[C@]23C)cs1 ?
Result: N

Problem: Would you mind telling me which call this test gave O=C1OCC2=C1C(c1cccc(Br)c1)c1cc3c(cc1N2CCO)OCCO3 (configuration not stated) ?
Result: Y

Problem: Would you mind telling me which call this test gave OC(c1cc(-c2ccc(C(F)(F)F)cc2)nc(-c2ccc(C(F)(F)F)cc2)c1)C1CCCCN1 (configuration not stated) ?
Result: Y

Problem: Would you mind telling me which call this test gave COc1cc(CN2CCO[C@H](COc3cccc(F)c3)C2)ccc1Cl ?
Result: N

Problem: Would you mind telling me which call this test gave CCN(C)CCCOc1ccc(/C(=C(\C)Cc2cccc(OC)c2)c2ccc(OC(C)=O)cc2)cc1 ?
Result: N

Problem: Would you mind telling me which call this test gave CN(CCO)c1ccc(N2Cc3ccccc3OC3=C2C(=O)c2c(O)ccc(O)c2C3=O)cn1 ?
Result: Y

Problem: Would you mind telling me which call this test gave C#CC[C@@H]1C[C@]2(C)[C@H]3CC=C4[C@H]5[C@@H](C)[C@H](C)CC[C@]5(C(=O)NCCCN5CCN(CCCN)CC5)CC[C@@]4(C)[C@]3(C)CC[C@H]2C(C)(C)[C@H]1OC(C)=O ?
Result: Y

Problem: Would you mind telling me which call this test gave COc1ccc(NC(=O)/C=C/c2ccc(NC(=O)N3CCCC3)cc2)cn1 ?
Result: N

Problem: Would you mind telling me which call this test gave Cc1cc(C)c(C#N)c(SCC(=O)c2sc3c(C#N)c(C)cc(C)[n+]3c2[O-])n1 ?
Result: Y

Problem: Would you mind telling me which call this test gave C/C(=N\OC(=O)Nc1cccc(Cl)c1)c1ccccc1 ?
Result: N

Problem: Would you mind telling me which call this test gave COc1c(-c2cc(-c3ccc(C)o3)[nH]c(=O)n2)c(O)cc2occc12 ?
Result: N

Problem: Would you mind telling me which call this test gave COc1cc(C2CC(c3cccc(Nc4ccnc5cc(Cl)ccc45)c3)=NN2c2ccccc2)cc(OC)c1OC (configuration not stated) ?
Result: N

Problem: Would you mind telling me which call this test gave OC(c1cc2cc(Cl)ccc2c2cc(C(F)(F)F)ccc12)C1CCCCN1 (configuration not stated) ?
Result: Y

Problem: Would you mind telling me which call this test gave COc1ccc(C(=O)c2cc(C)c(OC)c(C)c2)cc1OC(=O)CCl ?
Result: Y

Problem: Would you mind telling me which call this test gave Clc1ccc2c(c1)-n1cccc1C(c1ccc3ccccc3c1)=NC2 ?
Result: N

Problem: Would you mind telling me which call this test gave COc1ccc(NC(=O)c2ccc(C(F)(F)F)nc2Nc2ccc(Cl)cc2C)cc1Cl ?
Result: Y

Problem: Would you mind telling me which call this test gave CNCc1cccc2c1OCCOCCOCCC(C)S(=O)(=O)c1ccc(cc1)-c1cnc(N)c(n1)C(=O)N2 (configuration not stated) ?
Result: N

Problem: Would you mind telling me which call this test gave [Ag].[Ag].[NH-]S(=O)(=O)c1ccc(N=Nc2cc(N=Nc3ccc(S([NH-])(=O)=O)cc3)c3c(NC(=O)C(Cl)Cl)cccc3c2OC(=O)C(Cl)Cl)cc1.[c-]1nccs1.[c-]1nccs1 ?
Result: N

Problem: Would you mind telling me which call this test gave Oc1ccc(Cl)cc1-c1cc(-c2ccccc2Cl)[nH]n1 ?
Result: N

Problem: Would you mind telling me which call this test gave CC1(C)C(N(O)C(=O)Nc2ccc(Cl)cc2)N(c2ccc(Cl)cc2)C(=O)N1CC(=O)N/N=C/C=C/c1ccc([N+](=O)[O-])o1 (configuration not stated) ?
Result: N

Problem: Would you mind telling me which call this test gave CCOC(=O)C(Nc1ccccc1)C(=O)OCC ?
Result: N
